Below, each of the compounds is paired with its reported logP value.
Readout Kind: logP

chem_smiles=CCOCCOCCO recorded_result=-0.54
chem_smiles=CCCCOCCCC recorded_result=3.21
chem_smiles=CCCCCCOCCO recorded_result=1.86
chem_smiles=CCCCOCCOCCOCCCC recorded_result=1.92
chem_smiles=CCOC(=O)CCC(=O)OCC recorded_result=1.19

----------
# logP values compiled below
Readout Kind: logP

chem_smiles=COCCOCCOC recorded_result=-0.36
chem_smiles=CCOCCOCCOCC recorded_result=0.39
chem_smiles=CCCCCCOCCOCCO recorded_result=1.7
chem_smiles=CCOCCOCC recorded_result=0.66
chem_smiles=CCCOC(=O)CCC(=O)OCCC recorded_result=2.16
chem_smiles=COCCOC recorded_result=-0.21
chem_smiles=COC(=O)CCC(=O)OC recorded_result=0.19
chem_smiles=CCCCOCCO recorded_result=0.76
chem_smiles=CCCCOCCOCCO recorded_result=0.56
chem_smiles=CCCCOCCOCCCC recorded_result=2.48
